Origin of the recorded values: patent US20070004735A1

- Tested on: HCMV AD169 clone with mutation in UL86 R682H
- assay name: Susceptibility (IC50) of resistant HCMV AD169 clone R682H
- Assay type: cell-based, Human cytomegalovirus
- condition label: Human betaherpesvirus 5, read-out: IC 50, R682H
Assign IC50 to each entry below.
Numbers only, in nM.

Example entries begin here.
>>> df
                                   compound   u  experimental_result
0  Nc1nc(O)c2ncn(COC(CO)CO)c2n1 [Ganciclovir, reference compound]  nM                 1000
1  CC1(C)CC(=O)NN=C1c1cccc(NC(=O)Nc2ccc(F)cc2F)c1  nM                20000
2  CC1(C)CC(=O)NN=C1c1cc(NC(=O)Nc2cc(F)ccc2F)ccc1O  nM                 3000

Consider now this further compound.
// query Find IC50 (HCMV AD169 clone with mutation in UL86 R682H) for the entry CCCCC(=O)Nc1ccc(NC(=O)Nc2ccc(F)c(Cl)c2)cc1
// result 500

====

- Test system: HCMV AD169 clone with mutation in UL86 P586T
- assay name: Susceptibility (IC50) of resistant HCMV AD169 clone P586T
- Type: cell-based, Human cytomegalovirus
- condition label: Human betaherpesvirus 5, read-out: IC 50, P586T
- Method: The test compounds are employed as 50 millimolar (mM) solutions in dimethyl sulfoxide (DMSO). Ganciclovir®, Foscarnet® and Cidofovir® are used as reference compounds. […] The plates are then assessed visually using an overhead microscope (plaque multiplier from Technomara). For this purpose, NHDF cells are seeded in tissue culture vessels. […] Finally, the susceptibility to various substances (IC50 determination) is determined as described above. […]
API: label(entry) gives Condition met if the entry's IC50 is strictly smaller than 2 µM; on equality or larger values it gives Condition not met.

A selection of reference data follows.
>>> print(df.to_string())
                                   compound     category_label
0  CC1(C)CC(=O)NN=C1c1cccc(NC(=O)Nc2ccc(F)cc2F)c1  Condition not met
1  CCCCS(=O)(=O)Nc1cccc(NC(=O)Nc2ccc(F)c(Cl)c2)c1      Condition met

// query Quick check: IC50 of CCCCC(=O)Nc1ccc(NC(=O)Nc2ccc(F)c(Cl)c2)cc1 under 2 µM?
// result Condition met

// query Lab note: IC50 threshold 2 µM. Does this compound come in strictly under it? Cc1cc(Cl)ccc1NC(=O)Nc1cccc(C2=NNC(=O)C2(C)C)c1
// result Condition not met

// query Lab note: confirm whether the reported IC50 for this compound is below 2 µM, equality not counting. compound: Nc1nc(O)c2ncn(COC(CO)CO)c2n1 [Ganciclovir, reference compound]
// result Condition met

// query Check if IC50 falls below 2 µM for CC(=O)Nc1ccc(NC(=O)Nc2ccc(F)c(Cl)c2)cc1 .
// result Condition not met

// query Lab log: compare recorded IC50 with 2 µM; is it strictly lower for O=C(Nc1cccc(-c2n[nH]c(=O)n2C2CCCCC2)c1)Nc1ccc(F)c(Cl)c1 ?
// result Condition not met

====

- Tested on: Human cytomegalovirus (HCMV)
- assay name: Anti-HCMV cytopathogenicity test
- Type: cell-based
- condition label: Human betaherpesvirus 5, 144 h; NHDF cells, 6 days, cytopathogenic effect; read-out: IC50, antiviral activity in vitro
Hi there, I'd appreciate the recorded pIC50 for every entry that follows.
Numbers only, as −log10 of the molar value.

Example entries begin here.
In [3]: df
Out[3]:
                                   compound                  assay_system  metric  experimental_result
0  O=C(Nc1cccc(-c2n[nH]c(=O)n2C2CCCCC2)c1)Nc1ccc(F)c(Cl)c1 [Example 7]  Human cytomegalovirus (HCMV)   pIC50                 5.82
1  CC1(C)CC(=O)NN=C1c1cccc(NC(=O)Nc2ccc(F)cc2F)c1 [Example 1]  Human cytomegalovirus (HCMV)   pIC50                 6.00
2  CC(C)n1c(-c2cccc(NC(=O)Nc3ccc(F)c(Cl)c3)c2)n[nH]c1=O [Example 6]  Human cytomegalovirus (HCMV)   pIC50                 6.40
3  Cc1cc(Cl)ccc1NC(=O)Nc1cccc(C2=NNC(=O)C2(C)C)c1 [Example 8]  Human cytomegalovirus (HCMV)   pIC50                 6.22
4  CCCCS(=O)(=O)Nc1cccc(NC(=O)Nc2ccc(F)c(Cl)c2)c1 [Example 5]  Human cytomegalovirus (HCMV)   pIC50                 6.85

Give me pIC50 for each of these compounds, listed below.
1. CCCCC(=O)Nc1ccc(NC(=O)Nc2ccc(F)c(Cl)c2)cc1 [Example 4]
2. CC1(C)CC(=O)NN=C1c1cc(NC(=O)Nc2cc(F)ccc2F)ccc1O [Example 2]
3. CC(=O)Nc1ccc(NC(=O)Nc2ccc(F)c(Cl)c2)cc1 [Example 3]

// result
1. 7.10
2. 6.40
3. 6.30
